B1: TRIM55 (parent)
chain: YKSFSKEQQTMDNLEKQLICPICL

variants of: B1; experiment: protein stability index of a GFP-peptide fusion (GPS, HEK-293T) (PSI 1-6); higher = more stable; details: c terminus: a fixed tail appended;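 further: lentivirally expressed fusions sorted by FACS into six bins by GFP to DsRed ratio, PSI derived from sequencing read proportions per bin multiplied by bin number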
Given measured protein stability index, output 1 if it is greater than or equal to 2 and -1 if not.

Decide: protein stability index of L18Y >= 2? 1

Identify whether the reported protein stability index of the following variant is 2 or greater: L18N 1

Item S5E with protein stability index of 2 or above? 1

Would you say Q8R shows protein stability index at minimum 2? -1

API: above_or_equal(metric=protein stability index, cutoff=2) for item M11S 1

Given S3Y , state whether its protein stability index is at least 2. -1

Item L18K with protein stability index of 2 or above? 1

Exam item: decide whether the reported protein stability index for C20L is at least 2. 1

API: above_or_equal(metric=protein stability index, cutoff=2) for item S5Q 1
